Target: human CGRP receptor (Homo sapiens, UniProt O60894+Q16602)
Construct: SK-N-MC cells are cultivated in “Dulbecco's modified Eagle medium”; endogenous in cells
Sequence (Q16602 23-461): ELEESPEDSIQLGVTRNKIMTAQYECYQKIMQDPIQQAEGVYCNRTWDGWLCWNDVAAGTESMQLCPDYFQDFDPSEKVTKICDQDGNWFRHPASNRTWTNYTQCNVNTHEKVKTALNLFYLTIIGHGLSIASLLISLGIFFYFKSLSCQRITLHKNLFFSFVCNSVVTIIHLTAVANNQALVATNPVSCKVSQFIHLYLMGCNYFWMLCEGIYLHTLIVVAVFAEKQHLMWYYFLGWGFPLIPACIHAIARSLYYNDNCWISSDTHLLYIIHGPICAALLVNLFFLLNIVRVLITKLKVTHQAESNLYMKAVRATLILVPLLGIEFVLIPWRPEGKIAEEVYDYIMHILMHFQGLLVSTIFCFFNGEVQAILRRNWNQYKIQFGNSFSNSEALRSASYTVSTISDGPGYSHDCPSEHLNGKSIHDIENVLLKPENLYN
Sequence (O60894 27-148): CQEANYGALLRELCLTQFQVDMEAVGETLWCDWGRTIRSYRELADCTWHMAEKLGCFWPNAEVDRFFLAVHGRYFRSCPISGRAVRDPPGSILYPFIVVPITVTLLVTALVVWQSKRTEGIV
Test: Binding studies with SK-N-MC cells (expressing the human CGRP receptor), 125I-CGRP displacement on membranes
Settings: SK-N-MC cell membranes, 50 pM 125I-iodotyrosyl-CGRP, 180 min at ambient temperature
pKi: −log10 of the molar value.
pKi values by entry

{"columns": ["Molecule", "Subject of test", "pKi"],
 "data": [
  ["Cc1cc(C(=O)c2cc(N3CCC4(CC3)NC(=O)Nc3ccccc34)ncn2)cc2oc(=O)[nH]c12 [Example 1]", "human CGRP receptor (Homo sapiens, UniProt O60894+Q16602)", 8.22],
  ["Cc1cc(C(=O)c2cc(Nc3ccc4c(c3)CC3(C4)C(=O)Nc4ncccc43)ncn2)cc2oc(=O)[nH]c12 (centres unmarked) [Example 2]", "human CGRP receptor (Homo sapiens, UniProt O60894+Q16602)", 7.57]
]}
